Entry source: PubChem BioAssay AID1902

biological target: S. pyogenes SKKanGAS, kanamycin survival, BacTiterGlo, 6 h; assay: S. pyogenes SKKanGAS kanamycin growth inhibitors – SKKanGAS strain, luminescence, dose confirmation, streptokinase promoter inhibitor project, dose response (AID 1902);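 further: lower survival reflects blocked streptokinase promoter driving kanamycin resistance gene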
Active and inactive are the calls of the source.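 How the source made its calls: active means EC50 no more than a set limit of log units above the highest dose; inactive means the rest.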
Reported EC50 values follow for various molecules

| Molecule | EC50 |
| --- | --- |
| Oc1cccc(NC(=S)N=Nc2c(O)[nH]c3ccc(Br)cc23)c1 | 2.33 µM |
| CC1CCN(c2nc(CN3CCCCC3)nc3scc(-c4ccccc4)c23)CC1 | 3.02 µM |
| COC(=O)c1sc(-c2ccc(C(C)(C)C)cc2)cc1NC(=O)CSCC(=O)O | 3.91 µM |

Query string: // query EC50 value for entry S=c1[nH]nc(-c2cc3c(s2)-c2ccccc2CC3)o1
Result string: 3.87 µM

Query string: // query EC50 value for entry OC(COCC(F)(F)C(F)(F)C(F)(F)C(F)F)Cn1c2ccc(Cl)cc2c2cc(Cl)ccc21 (stereo unspecified)
Result string: 2.16 µM

Query string: // query EC50 value for entry COc1ccccc1CNC(=O)CSc1nc(=O)n(Cc2ccncc2)c2c1CCC2
Result string: > 15 µM (inactive)

Query string: // query EC50 value for entry CN(Cc1ccc(N(C)C)cc1)C(=O)c1cc2ccccc2o1
Result string: > 15 µM (inactive)

Query string: // query EC50 value for entry C/C(=N\NC(=O)c1cccc2ccccc12)c1ccccn1
Result string: 3.26 µM

Query string: // query EC50 value for entry CCOc1ccc(/C=N/Nc2cc(N3CCOCC3)nc(C)n2)c(O)c1
Result string: 8.48 µM

Query string: // query EC50 value for entry COc1ccc(NC(=O)c2cc3cccc(OC)c3oc2=Nc2ccc(C(=O)O)cc2)cc1OC
Result string: 2.1 µM

Query string: // query EC50 value for entry CC(C)(C)c1cc(C(=O)N/N=C/c2ccc([N+](=O)[O-])s2)n[nH]1
Result string: 7.4 µM

Query string: // query EC50 value for entry c1ccc(-c2nc(NCc3ccco3)c3ccccc3n2)nc1
Result string: 4.7 µM

Query string: // query EC50 value for entry CC(=O)OCC1=C(C(=O)O)N2C(=O)C(NC(=O)CCn3nc(C)c(Cl)c3C)C2SC1 (stereo unspecified)
Result string: 1.02 µM

Query string: // query EC50 value for entry Cc1ccc(-c2csc3ncnc(NS(=O)(=O)c4ccc(Cl)cc4)c23)cc1
Result string: 6.82 µM

Query string: // query EC50 value for entry CN(C(=O)Cc1c(C(=O)O)n(C)c2ccccc12)c1ccc(F)cc1
Result string: > 15 µM (inactive)

Query string: // query EC50 value for entry CC(C)Nc1cc(C(C)(C)C)nc2c(-c3ccccc3)cnn12
Result string: 4.42 µM

Query string: // query EC50 value for entry COc1ccc(C(CNC(=O)c2cccc(S(=O)(=O)Nc3ccccc3Cl)c2)N2CCOCC2)cc1 (stereo unspecified)
Result string: 11.1 µM

Query string: // query EC50 value for entry Cc1nn(C)c(Cl)c1CN1CCCC(C(=O)Nc2ccc(-c3cscn3)cc2)C1 (stereo unspecified)
Result string: > 15 µM (inactive)

Query string: // query EC50 value for entry CN(C)c1ccc(C2C=C(c3ccc(Cl)cc3OC(F)F)Nc3ncnn32)cc1 (stereo unspecified)
Result string: 10.8 µM

Query string: // query EC50 value for entry O=C(O)C(c1ccccc1)N1C(=O)/C(=C\c2ccc(-c3ccc(Br)cc3)o2)SC1=S (stereo unspecified)
Result string: 1.27 µM

Query string: // query EC50 value for entry CCOc1ccc(Nc2cc(C)nc(-n3nc(C)cc3C)n2)cc1
Result string: 14 µM
